Assay: small-molecule microarray binders of probe aCHRDL2, primary screen, biochemical, biotinylated probe, 635/667 nm fluorescence (AID 1100)
Conditions: higher = more signal
Form field: composite z-score (one value per entry).
property-label: composite z-score

CC(C)NC(=O)[C@@]1(C)c2ccccc2C(=O)N(Cc2cc(F)cc(C(F)(F)F)c2)[C@H]1c1ccc(CO)cc1 : 0.384
C=CC[C@]1(C(=O)NCc2ccccc2)N=C(c2ccc(OCCCO)cc2)O[C@H]1c1ccccc1 : 1.06
CO[C@H]1O[C@H](CO)[C@@H](OC(=O)Nc2ccc3c(c2)OCO3)[C@H](OC(=O)Nc2ccccc2-c2ccccc2)[C@@H]1OC(=O)Nc1ccccc1-c1ccccc1 : 0.542
C=COC[C@H]1CN2[C@@H](CC[C@@H](C)[C@@H]2c2ccc(Br)cc2)C(=O)O1 : -0.601
C[C@@H](c1ccccc1)N1C(=O)[C@H]2[C@H]3[C@H](O)C=CC(=O)[C@@H]3CC[C@H]2C1=O : -0.674
CC(C)C[C@@H]1NC(=O)[C@H]2C[C@@H](C(=O)O)[C@@H](c3ccc(O)cc3)N2C1=O : 0.171
COc1ccc(O[C@@H]2[C@H](O)CO[C@H]2C=CC#Cc2ccccc2)cc1 : -0.716
C[C@@H]1C=CCC(=O)OC[C@H](C)C(=O)N2CCC[C@H]2C(=O)OC1 : -0.769

---

System: Lefty1
Test: Lefty1 binders on small-molecule microarrays, primary screen, biochemical, small-molecule microarray, 635/667 nm fluorescence (AID 1139)
Conditions: small-molecule microarray binding, fluorescence 635/667; higher = more signal
Use 1.0 when the recorded composite z-score is no lower than 0.1; use 0.0 when it is lower.

C[C@@H]1CC[C@H]2C(=O)O[C@H](COc3ccc(C(C)(C)C)cc3)CN2[C@H]1c1ccc(Br)cc1 : 0.0
NC(=O)NCC#Cc1ccc2c(c1)[C@]1(C(=O)N2)[C@H](c2ccc(O)cc2)N2[C@H](c3ccccc3)[C@H](c3ccccc3)OC(=O)[C@H]2[C@@H]1C(=O)N1CCCCCCC1 : 1.0
COCCOC(=O)N1C(=O)[C@@]2(c3cc(C#CCNC(N)=O)ccc31)[C@H](c1ccccc1OCCO)N1[C@H](c3ccccc3)[C@H](c3ccccc3)OC(=O)[C@H]1[C@@H]2C(=O)N1CCN(c2ncccn2)CC1 : 1.0
CCN1C(=O)[C@H]2[C@H]3[C@H](O)C=CC(=O)[C@@H]3CC[C@H]2C1=O : 1.0
CCOC(=O)C1=CCC(c2cc3ccccc3[nH]2)NC1 (stereo not given) : 0.0
COc1ccc(O[C@H]2C=C[C@@H](c3ccccc3)O[C@@H]2COC(=O)CCC(C)=NO[C@@H](C)c2cc(-c3c(C)cc(C)cc3C)no2)cc1 : 0.0
O=C(NN=C1C[C@@H](O)[C@@H](O)[C@@H]2[C@@H]3C(=O)N(c4cccc(Oc5ccccc5)c4)C(=O)[C@@H]3CC[C@H]12)OCc1ccccc1 : 1.0
O=C1C[C@@H](O)[C@@H](O)[C@@H]2[C@@H]3C(=O)N(Cc4ccc5c(c4)OCO5)C(=O)[C@@H]3CC[C@@H]12 : 1.0
CC(C)OC(=O)C=C1C[C@@H](c2ccc(C#N)cc2)O[C@@H](c2ccc(C#N)cc2)O1 : 1.0
C=CC[C@@H]1C=C[C@H](ON=C2c3cc(OC)ccc3O[C@H](c3cccc(OC)c3)[C@H]2O)[C@@H](CO)O1 : 1.0
NCCCCCNC(=O)[C@@H]1C[C@@H]2C(=O)N3CCC[C@H]3C(=O)N2[C@@H]1c1cccc(OCCO)c1 : 1.0
CN1C(=O)C2C=CC(C(O)C(c3ccccc3)c3ccccc3)N(NC(=O)OC(C)(C)C)C2C1=O (stereo not given) : 1.0
CO[C@H]([C@@H](C)[C@H](OC)c1ccccc1)[C@H](C)[C@@H](OC)[C@H](C)C(C)=O : 1.0
CN(C)CCCNC(=O)[C@@H]1c2ccccc2C(=O)N(Cc2cc(F)cc(C(F)(F)F)c2)[C@H]1c1ccc(CO)cc1 : 0.0
CC(C)=C1C(=O)C(c2ccccc2)=C2CN3C(=O)N(CCc4ccccc4)C(=O)[C@]3(Cc3ccc(F)cc3)[C@H]21 : 0.0
